# Test system: SR leukemia
# Protocol details: NCI tumour cell line growth inhibition, 48 h
Measured property: TGI

INSERT INTO results (molecule, assayed_system, measured_property, meas_value) VALUES
  ('C[CH2][Sn]([CH2]C)([O]C(=O)c1cc(OC)c(OC)c(OC)c1)[O][Sn]([CH2]C)([CH2]C)[O]C(=O)c1cc(OC)c(OC)c(OC)c1', 'SR leukemia', 'TGI', '> 100 µM'),
  ('CCOP(=O)(OCC)OC1CC(n2cnc3c(N(CC)CC)ncnc32)OC1CO[Si](C)(C)C(C)(C)C (stereo not drawn)', 'SR leukemia', 'TGI', '> 100 µM');

Now let's try a different one.
For the molecule shown here, Nc1ccc(C(=O)O)c2[nH]c3ccccc3c(=O)c12 , give the reported TGI.
> 100 µM

====

Listed here: items and their measured TGI.
# System: DMS 114 small cell lung
# Protocol details: NCI tumour cell line growth inhibition, 48 h

INSERT INTO results (compound, meas_value) VALUES
  ('COC1C2c3ccccc3C(C#N)(Cc3ccc4c(c32)OCO4)N1C(=O)c1ccccc1 (stereo not drawn)', '> 100 µM'),
  ('Cc1ccc(NC(=O)CCC(=O)C2CC(=O)CCC2=O)cc1C (stereo not drawn)', '> 100 µM');

# ---- query compound ----
Item N=C1SCCS1 has what recorded TGI?
> 100 µM

====

# Tested on: BT-549 breast
# Protocol details: NCI tumour cell line growth inhibition, 48 h
// reported TGI for each item listed

Previously resolved entries follow.
INSERT INTO measurements (smiles_representation, assayed_system, meas_value) VALUES
  ('O=C(O)Cc1ccccc1', 'BT-549 breast', '> 2000 µM'),
  ('Brc1ccc(C2(N3CCCCC3)CCCCC2)s1', 'BT-549 breast', '> 100 µM'),
  ('Cc1ccc(CCCC(=O)O)cc1C', 'BT-549 breast', '> 100 µM');

// switching to the query molecule
Value wanted: TGI (BT-549 breast) of entry O=Cc1cc(O)ccc1Br
> 83.4 µM

====

# reported TGI; entries follow
# Test system: SK-MEL-2 melanoma
# Protocol details: NCI tumour cell line growth inhibition, 48 h

Please review the following examples before continuing.
INSERT INTO measurements (molecule, meas_value) VALUES
  ('CC(=O)/C(=C\n1c(=S)[nH]c2ccc([N+](=O)[O-])cc21)C(=O)Nc1ccccc1C', '> 100 µM'),
  ('C[N+](C)(C)C(Cc1c[nH]c(=S)[nH]1)C(=O)O (stereo unspecified)', '> 100 µM'),
  ('O=C(O)C1CCCCN1CCc1c[nH]c2ccccc12 (stereo unspecified)', '> 100 µM');

Can you look up the measured TGI of C/C(O)=C/c1nc2sc(C)c(C)c2c(=O)s1 for me?
65.1 µM

Try the molecule Cn1cc(-c2csc(-c3cn(C)c4ncccc34)n2)c2ccccc21
16.8 µM

Subsequent entry: Cc1ccc(S(=O)(=O)OC(C=O)C(O)C(O)COC(c2ccccc2)(c2ccccc2)c2ccccc2)cc1 (stereo unspecified)
29.9 µM

====

# System: SK-MEL-5 melanoma
# Protocol details: NCI tumour cell line growth inhibition, 48 h
TGI below 20 µM gives rule not met; TGI at or above it gives rule met.

Sample answers from the record:
INSERT INTO assay_data (compound, label_value) VALUES
  ('Nc1nccc(C#Cc2cncnc2Nc2ccc(OCc3cccc(F)c3)c(Cl)c2)n1', 'rule not met'),
  ('O=C1/C(=C\c2ccccc2)CN(C(=O)c2ccccc2F)C/C1=C\c1ccccc1', 'rule not met'),
  ('CC(=O)[CH-]C(=O)c1ccccc1.CC(=O)[CH-]C(=O)c1ccccc1.[O-]Cc1cccs1.[O-]Cc1cccs1.[Ti+4]', 'rule met'),
  ('N#CCCN(CCC#N)c1ccc(/C=C2\N=C(c3ccccc3)N(NC(=O)c3ccncc3)C2=O)cc1', 'rule met');

State whether the measured TGI reaches 20 µM, counting equality as reaching it, for Cc1cc2c(cc1-c1cc3c(cc1C)C(C(C)C)=C(O)C(=O)/C3=C\Nc1cccc3c(N)cccc13)/C(=C/Nc1cccc3c(N)cccc13)C(=O)C(O)=C2C(C)C
rule met

And then COc1ccc2c(c1)OCC1Cc3cccc(OC)c3OC21 (stereo unspecified) , what is it?
rule met

What about this compound? CC1OC(OC2C(OC3CCC4(C)C(CCC5(C)C4CC=C4C6CC(C)(C)CCC6(CO)C(O)CC45C)C3(C)C)OC(C(=O)O)C(OC3OC(COC4OC(CO)C(O)C(O)C4O)C(O)C(O)C3O)C2O)C(O)C(O)C1O (stereo unspecified)
rule met

Would you mind doing COc1ccc(/C=N/Nc2nc3ccccc3c(=O)n2-c2ccccc2)cc1 as well?
rule met

Please do the same for Nc1ccc(C(=O)O)c2[nH]c3ccccc3c(=O)c12 as well.
rule met

Also check NC(=S)NS(=O)(=O)c1ccc(F)cc1
rule met

Another compound: CC(C)c1cccc(C(C)C)c1NC(=S)Nc1ccccc1
rule met

Further, for O=C(NCCS(=O)(=O)N1C(=O)C2CCCN2C(=O)[C@@H]1Cc1ccccc1)OCc1ccccc1 (stereo partly specified) ?
rule met

====

The following compounds are shown together with reported TGI values.
# System: SN12C renal
# Protocol details: NCI tumour cell line growth inhibition, 48 h

INSERT INTO measurements (compound, meas_value) VALUES
  ('COC(=O)C1CCCCCCCCCCC12SCCCS2 (centres undefined)', '31.8 µM'),
  ('Cc1cc2c(C)nn(Cc3ccc(Cl)cc3Cl)c2c(C#N)c1C', '> 100 µM');

Look up TGI: CC1=NN(c2ccccc2Cl)C2(C1)SCC(=O)N2c1nc2ccccc2s1 (centres undefined)
> 100 µM

What about CCN(CC)c1ccc(/C=C/C2=[N+](C)c3ccccc3C2(C)C)cc1 ?
13.8 µM

O=C(O)c1ccccc1/C=C1\Cc2ccc3c(c2C1=O)CCCC3 , same question.
> 100 µM

====

TGI values, listed per item
# Test system: SNB-75 CNS
# Protocol details: NCI tumour cell line growth inhibition, 48 h

INSERT INTO results (compound, meas_value) VALUES
  ('Cc1c(O)c(OC2OC(CO)C(O)C(O)C2O)cc2c1CC[C@@H]1C2(C)C(=O)C[C@]2(C)[C@@H]([C@@](C)(O)C(O)CCC(C)(C)O)[C@H](O)C[C@@]12C (stereo partly specified)', '> 100 µM'),
  ('C=C1CCC2C3(C)COC(c4cccc(Cl)c4)OC3CCC2(C)C1/C=C/C1=CCOC1=O (stereo unspecified)', '> 100 µM'),
  ('O=C(O)Cc1ccccc1', '> 2000 µM'),
  ('CCOC(=O)C12CN(C34CC5CC(CC(C5)C3)C4)CC(C(=O)OCC)(C1=O)C(c1ccccc1)OC2c1ccccc1 (stereo unspecified)', '> 100 µM'),
  ('O=S(=O)(Nc1ccc2ccc3cccc4ccc1c2c34)c1ccccc1', '> 100 µM');

Please tell me: TGI of C1=C(N2CCOCC2)/C(=C2\SC(=Nc3ccccc3)C(=Nc3ccccc3)N2c2ccccc2)CC1 , system SNB-75 CNS?
65.4 µM

Follow-up entry: c1ncc(C23C4C5C6C4C2C6C53)[nH]1 (stereo unspecified)
> 100 µM

// query: S=c1nc(/C=C/c2ccc(Cl)c(Cl)c2)[nH][nH]1
> 100 µM

And the next one, N=C(N)c1ccc(-c2ccc(-c3ccccc3)o2)cc1 ?
3.43 µM

What do we get for NC(=S)NS(=O)(=O)c1ccc(F)cc1 ?
> 100 µM

Then Clc1ccc(C2=NN(c3ccccc3)C3c4cc(Br)ccc4OCC23)cc1 (stereo unspecified) ?
> 100 µM

Also check [N-]=[N+]=NC1=C(N=[N+]=[N-])c2cccc3cccc(c23)C1=O
> 100 µM

What would you report for COc1ccc(C(NCCNC(c2ccc(OC)c(OC)c2)c2cc3c(cc2O)OCO3)c2cc3c(cc2O)OCO3)cc1OC (stereo unspecified) ?
11.5 µM

====

# System: NCI-H226 lung
# Protocol details: NCI tumour cell line growth inhibition, 48 h
# TGI per entry

INSERT INTO results (compound, assayed_system, meas_value) VALUES
  ('CC1(c2nc3ccccc3[nH]2)CCC(CO)C(C)(C)O1 (centres undefined)', 'NCI-H226 lung', '> 100 µM'),
  ('O=C(c1no[n+]([O-])c1C(=O)c1csc2ccccc12)c1csc2ccccc12', 'NCI-H226 lung', '35 µM'),
  ('O=C(CC(C(=O)c1ccsc1)c1cccs1)c1ccsc1 (centres undefined)', 'NCI-H226 lung', '> 100 µM'),
  ('Cc1cc(N(CCC#N)CCC#N)ccc1N=Nc1ccc([N+](=O)[O-])cc1', 'NCI-H226 lung', '> 100 µM'),
  ('C[C@H]1ON2CCC[C@@H]2[C@@H]1C(=O)N1C2CC3CCC2(CS1(=O)=O)C3(C)C (some centres undefined)', 'NCI-H226 lung', '> 100 µM');

API: the following record is the query input.
Would you mind telling me what TGI value was observed for COc1ccc(Nc2nc3c(N)cc(C(F)(F)F)cc3nc2-c2ccccc2)cc1 ?
> 100 µM
